SUBJECT OF TEST: T. cruzi proteasome caspase-like activity (Trypanosoma cruzi, UniProt V5BHX1)
Sequence (V5BHX1 entry or part of it): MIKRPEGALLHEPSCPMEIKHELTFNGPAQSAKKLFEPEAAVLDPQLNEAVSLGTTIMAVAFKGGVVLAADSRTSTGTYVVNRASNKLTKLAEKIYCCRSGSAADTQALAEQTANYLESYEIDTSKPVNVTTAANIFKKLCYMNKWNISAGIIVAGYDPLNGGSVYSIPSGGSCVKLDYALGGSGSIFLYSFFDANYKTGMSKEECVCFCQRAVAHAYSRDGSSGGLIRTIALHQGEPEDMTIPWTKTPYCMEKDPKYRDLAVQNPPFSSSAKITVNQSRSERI
EXPERIMENT: Cell-free T. cruzi proteasome caspase-like activity luminescence assay
Format: biochemical
PROTOCOL CONDITIONS: n = 4; 20 μM Z-Nle-Pro-Nle-Asp-aminoluciferin
Non-standard residues stand in square brackets, D forms with d. Residues, ends and D or L forms follow the SMILES beside them. ξ: configuration not given here. *: point of attachment. Nva = CCC[C@H](N)C(=O)O; Cbz = O=C(OCc1ccccc1)*; ξL = CC(C)CC(N)C(=O)O
Collected Cell-free pIC50 ± SD, Caspase-like values appear next to each entry.
Numbers only; they are read as M.

- MOLECULE: "CCC[C@@H](C=O)NC(=O)C(CC(C)C)NC(=O)[C@H](CC(C)C)NC(=O)OCc1ccccc1 (stereo partly drawn) [MG115] (Cbz-Leu-[ξL]-[Nva]-aldehyde)"
  Cell-free pIC50 ± SD, Caspase-like, M: 4.91
- MOLECULE: "CC(C)C[C@H](NC(=O)[C@H](Cc1ccccc1)NC(=O)c1cnccn1)B(O)O"
  Cell-free pIC50 ± SD, Caspase-like, M: 7.16
- MOLECULE: "CC[C@H](C)[C@H](NC(=O)[C@H]([C@@H](C)CC)N(C)C(C)=O)C(=O)N[C@H](C(=O)N[C@@H](CC(C)C)C(=O)[C@@]1(C)CO1)[C@@H](C)O"
  Cell-free pIC50 ± SD, Caspase-like, M: 5.85
- MOLECULE: "CC(C)C[C@H](NC(=O)CNC(=O)c1cc(Cl)ccc1Cl)B(O)O"
  Cell-free pIC50 ± SD, Caspase-like, M: 7.49

Continue with the molecule presented below.
CC(C)C[C@@H](C=O)NC(=O)[C@H](CC(C)C)NC(=O)[C@H](CC(C)C)NC(=O)OCc1ccccc1 [MG132] (Cbz-Leu-Leu-Leu-aldehyde) tested on T. cruzi proteasome caspase-like activity (Trypanosoma cruzi, UniProt V5BHX1) gave Cell-free pIC50 ± SD, Caspase-like: 6.01

Origin of the recorded values: paper PMC6709497
